- assayed_system: T1, recombinant human HER2 extracellular domain protein (human, UniProt P04626 23-652)
- T1 construct: range 23-652; Range is printed for the immunogen/panning protein; also called ErbB2; recombinant HER2 protein
- protocol_text: BLI, Protein A capture
readout: pKd
// pKd is dimensionless: -log10 of concentration (M)

Ask: // lookup pKd for Hu2117HK-Mu45 (Fc fusion, scFv-hIgG1 Fc; not shown: human IgG1 Fc) scFv: EVQLVESGGGLVQPGGSLRLSCAASGFTYSSYGMSWVRQAPGKGLEWVASISGGGSYTKYPDSVKGRFTISRDNSKNTLYLQMNSLRAEDTAVYYCARDYIGFFDVWGQGTLVTVSSGGGGSGGGGSGGGGSDIQMTQSPSSLSASVGDRVTITCRSSQSLVHSNGNTYLHWYQQKPGKAPKLLIYKVSNRFSGVPSRFSGSGSGTDFTLTISSLQPEDFATYFCSQSTHVPYTFGQGTKVEIK
Reply: 7.89

Ask: Next binder up: Hu2117HK-Mu06 (Fc fusion, scFv-hIgG1 Fc; not shown: human IgG1 Fc) scFv: EVQLVESGGGLVQPGGSLRLSCAASGFTYSSYGMSWVRQAPGKGLEWVSSISGGGSYTKYPDSVKGRFTISRDNSKNTLYLQMNSLRAEDTAVYYCARDYAGFFDVWGQGTLVTVSSGGGGSGGGGSGGGGSDIQMTQSPSSLSASVGDRVTITCRSSQSLVHSNGNTYLHWYQQKPGKAPKLLIYKVSNRFSGVPSRFSGSGSGTDFTLTISSLQPEDFATYFCSQSTHVPYTFGQGTKVEIK
Reply: 8.09

Ask: Now this one: Hu2117HK-Mu30 (Fc fusion, not shown: a dimerising Fc or GST; small tags and cut ends, scFv-hIgG1 Fc) scFv: EVQLVESGGGLVQPGGSLRLSCAASGFTYSSYGMSWVRQAPGKGLEWVASISGGGSYTKYPDSVKGRFTISRDNSKNTLYLQMNSLRAEDTAVYYCARDYAGFFDVWGQGTLVTVSSGGGGSGGGGSGGGGSDIQMTQSPSSLSASVGDRVTITCRSSQSLVDSNGNTYLHWYQQKPGKAPKLLIYKVSNRFSGVPSRFSGSGSGTDFTLTISSLQPEDFATYFCSQSTHVPYTFGQGTKVEIK
Reply: 8.08
